- Test system: MDA-MB-231 breast
- procedure_text: NCI tumour cell line growth inhibition, 48 h

compound	target_of_assay	GI50
N#Cc1ccc2[nH]cc(Cc3c[nH]c4ccc(C#N)cc34)c2c1	MDA-MB-231 breast	10.3 µM
Cc1cccc2c(=O)c3c(sc12)c(NCCCN)nc1ccccc13	MDA-MB-231 breast	1.52 µM
COc1cccc(C2SC(C)C(=O)N2NC(=O)C(O)c2ccccc2)c1 (configuration not stated)	MDA-MB-231 breast	> 100 µM
C[C@]12CC[C@@H]3c4ccc(O)cc4CC[C@H]3[C@@H]1CC(Cc1ccccc1)(Cc1ccccc1)C2=O	MDA-MB-231 breast	14.1 µM
NC(=O)c1ccc(I)c([N+](=O)[O-])c1	MDA-MB-231 breast	49.5 µM
CCC(CO)Nc1nc(NCc2ccccc2)c2n[nH]c(C(C)C)c2n1 (configuration not stated)	MDA-MB-231 breast	15.8 µM
CCCCCCCCCCCCCCCCCC1=NC(C)(C)CN1C(C)(C)CO	MDA-MB-231 breast	1.29 µM
COc1ccc(-c2oc3ncnc(N)c3c2-c2ccc(NC(=O)Nc3cc(C(F)(F)F)ccc3F)cc2)cc1	MDA-MB-231 breast	1.1 µM
COc1cc(-c2n/c(=C\c3c(O)[nH]c4ccccc34)cc3c2=Nc2ccccc2-3)ccc1F	MDA-MB-231 breast	3.91 µM
N[C@@H](Cc1c[nH]c2ccccc12)C(=O)NC1CCN(Cc2c[nH]c3ccc(Cl)cc23)CC1	MDA-MB-231 breast	2.32 µM
CCCCCCCC(=O)Nc1nc2[nH]c(CN3CCN(Cc4cccc(I)c4)CC3)c(CN3CCN(Cc4cccc(I)c4)CC3)c2c(=O)[nH]1	MDA-MB-231 breast	0.875 µM
COc1cc(/C=C2\C(=O)Nc3ccc(Cl)cc32)cc(OC)c1OC	MDA-MB-231 breast	11.4 µM
